# ASSAY_EXPLANATION: yeast display, Sf9 membrane polyspecificity reagent, FACS + sequencing; frameworks hold sequencing errors
READOUT_TYPE: polyreactivity (PSR sort gate)

| ITEM_SEQUENCE | EXPERIMENTAL_RESULT |
| --- | --- |
| QVQLVESGGGLVQAGGSLRLSCAASGLIFYTYAMGWYRQAPGNERELVADINRSDGSTYYADSVKGRFTISRDNAKNTVYLQMNSLKPEDTAVYYCAVVGPYYSRFGGRYYYWGQGTQVTVSS | low polyreactivity |
| QVQLVESGGGLVQAGGSLRLSCAASGRIFGINAMGWYRQAPGKERELVAAINRSGDTTNYADSVKGRFTISRDNAKNTVYLQMNSLKPEDTAVYYCAADGYRQVYYRYYYWGQGTQVTVSS | high polyreactivity |
| QVQLQESGGGLVQAGGSLRLSCAASGYISHADEMGWYRQAPGKEHELVASISNGGSTNYADSVKGRFTISRDNAKNTVFLQMNSLKSEDTAVYYCAAWTGQVDIHYYWGQGTQVTVSS | low polyreactivity |
| QVQLVVSGGGLVQAGGSLRLSCAASGSIFLVNVMGGDRQAPGKERELVAAITWSGGRTYYADSVKGRFTISRDNAKNTVYLPRNSRLPEDTAVYYCAAQTPRFVWQKGPLDSEDYWGQGTQVTVSS | high polyreactivity |

Shift focus to the following entry.
Q. Sample QVQLVESGGGLVQAGGILRLSCAASGSIFGWYAMGWYRQAPGKERELVAGISWSGANTYYADSVKGRFTISRDNAKNTVYLQMNSLKPEDTAVYYCAAGPGRYYSRRYGYWGQGTQVTVSS — what was its polyreactivity (PSR sort gate)?
A. high polyreactivity
